Measured melting point, listed per entry for reference.

Consider the reported melting point for these compounds:
INSERT INTO assay_data (compound, metric, observedvalue) VALUES
  ('O=c1[nH]c2cc(C(F)(F)F)ccc2n1CCCN1CCN(C(c2ccccc2)c2ccccc2)CC1', 'melting point', '153 °C'),
  ('O=C1c2ccccc2C(=O)N1[C@@H]1C=CC[C@H]1O (relative stereo)', 'melting point', '114 to 116 °C'),
  ('CCOC(=O)c1nc2n(n1)-c1sc(C)c(C)c1C(c1ccccc1)=NC2', 'melting point', '173 to 174 °C'),
  ('CN(C)CCCNC(=S)Nc1ccccc1', 'melting point', '112 to 114 °C');

Attention now shifts to the item below.
Exercise: Tell me measured melting point for CC(C)Cn1c(=O)n(C)c(=O)c2c(Sc3ccc(N)cc3)c(Cc3cccc4ccccc34)sc21 please.
Solution: 177 to 178 °C

FYI, the data here is from a melting point compilation (Tetko et al.; mined from patent text by program, amines drawn as free bases though some values may be those of a salt).
